Target: Serine/threonine-protein kinase mTOR (Homo sapiens)

[
  {
    "COMPOUND": "CC(Nc1cc(F)cc(F)c1)c1cc(C(=O)NCCN(C)C)cc2ncc(N3CCOCC3)nc12 (racemic)",
    "Kd": "> 30.2 µM"
  },
  {
    "COMPOUND": "C[C@H](Nc1cccc(F)c1)c1cc(C(=O)NCCO)cc2ncc(N3CCOCC3)nc12",
    "Kd": "> 30.2 µM"
  },
  {
    "COMPOUND": "C[C@@H]1CN(C(=O)c2cc(C3CCCN3c3cc(F)cc(F)c3)c3nc(N4CCOCC4)cnc3c2)C[C@H](C)N1 (mixture of isomers)",
    "Kd": "> 30.2 µM"
  }
]

====

Target: Phosphatidylinositol 4,5-bisphosphate 3-kinase catalytic subunit delta isoform (Homo sapiens)
Sequence (O00329 whole entry): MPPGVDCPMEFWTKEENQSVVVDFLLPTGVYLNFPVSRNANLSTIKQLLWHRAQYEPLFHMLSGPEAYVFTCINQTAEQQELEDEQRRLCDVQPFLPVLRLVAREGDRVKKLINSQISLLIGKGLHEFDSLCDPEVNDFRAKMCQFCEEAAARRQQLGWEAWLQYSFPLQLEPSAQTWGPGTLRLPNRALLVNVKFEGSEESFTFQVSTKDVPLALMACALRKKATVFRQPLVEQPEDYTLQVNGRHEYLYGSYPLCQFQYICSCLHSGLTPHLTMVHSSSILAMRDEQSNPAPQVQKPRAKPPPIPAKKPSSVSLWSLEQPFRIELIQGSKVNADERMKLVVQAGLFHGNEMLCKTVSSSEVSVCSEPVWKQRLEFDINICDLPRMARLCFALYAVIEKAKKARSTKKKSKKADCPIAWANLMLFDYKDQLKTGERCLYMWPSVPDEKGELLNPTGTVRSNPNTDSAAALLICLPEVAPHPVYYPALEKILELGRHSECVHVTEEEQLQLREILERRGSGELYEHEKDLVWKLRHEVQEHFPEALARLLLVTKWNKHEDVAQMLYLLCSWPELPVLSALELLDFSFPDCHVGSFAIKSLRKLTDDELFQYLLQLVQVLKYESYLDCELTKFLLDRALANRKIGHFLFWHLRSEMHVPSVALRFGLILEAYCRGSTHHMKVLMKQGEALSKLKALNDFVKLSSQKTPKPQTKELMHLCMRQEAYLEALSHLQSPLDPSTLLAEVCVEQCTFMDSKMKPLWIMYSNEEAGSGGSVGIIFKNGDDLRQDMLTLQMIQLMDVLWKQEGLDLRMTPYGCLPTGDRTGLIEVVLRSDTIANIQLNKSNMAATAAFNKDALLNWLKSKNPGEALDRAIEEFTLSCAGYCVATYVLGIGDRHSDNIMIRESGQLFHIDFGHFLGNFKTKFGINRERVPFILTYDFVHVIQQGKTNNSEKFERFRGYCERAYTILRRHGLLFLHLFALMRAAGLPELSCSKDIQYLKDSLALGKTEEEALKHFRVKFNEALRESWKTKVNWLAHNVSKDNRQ
Assay: Binding affinity to wild-type human PIK3Cdelta (R108 to Q1044 residues) expressed in mammalian expression system by KINOMEScan assay
The entries below are paired with their reported Kd.
VALUE KIND: Kd (µM)

[
  {
    "MOLECULE": "C[C@@H](Nc1cccc(F)c1)c1cc(C(=O)NCCO)cc2ncc(N3CCOCC3)nc12",
    "VALUE KIND": "Kd",
    "REPORTED MEASUREMENT": 0.324
  },
  {
    "MOLECULE": "C[C@@H]1CN(C(=O)c2cc(C3CCCN3c3cc(F)cc(F)c3)c3nc(N4CCOCC4)cnc3c2)C[C@H](C)N1 (mixture of isomers)",
    "VALUE KIND": "Kd",
    "REPORTED MEASUREMENT": 0.007
  },
  {
    "MOLECULE": "Cc1c(F)cccc1NCc1cc(C(=O)NCCN(C)C)cc2ncc(N3CCOCC3)nc12",
    "VALUE KIND": "Kd",
    "REPORTED MEASUREMENT": 0.324
  }
]
